// data source = patent US10226453B2

# Tested on: Wnt activity (Sp5-Luc reporter, SW480 colon carcinoma cells)
# test: Wnt activity screening assay: Sp5-Luc reporter gene in SW480 colon carcinoma cells
# Assay type: cell-based
# measurement context: Homo sapiens, overnight incubation, 10-point curve from 10 μM
pEC50: −log10 of the molar value.
observable: pEC50

structure smiles string	pEC50
Oc1cncc(-c2ccc3[nH]nc(-c4cc5c(-c6cccs6)cccc5[nH]4)c3n2)c1	< 5.00
O=C(Nc1cncc(-c2ccc3[nH]nc(-c4cc5c(-c6cccs6)cccc5[nH]4)c3n2)c1)c1ccccc1	< 5.00

Note down pEC50 recorded for CN1CCN(c2cccc3[nH]c(-c4n[nH]c5ccc(-c6cncc(CN7CCCCC7)c6)nc45)cc23)CC1
< 5.00
